- system: FXa (Homo sapiens, UniProt P00742)
- Construct: factor Xa (FXa), FXIa, factor XIIa (FXIIa), trypsin and chymotrypsin
- Sequence (P00742 235-488): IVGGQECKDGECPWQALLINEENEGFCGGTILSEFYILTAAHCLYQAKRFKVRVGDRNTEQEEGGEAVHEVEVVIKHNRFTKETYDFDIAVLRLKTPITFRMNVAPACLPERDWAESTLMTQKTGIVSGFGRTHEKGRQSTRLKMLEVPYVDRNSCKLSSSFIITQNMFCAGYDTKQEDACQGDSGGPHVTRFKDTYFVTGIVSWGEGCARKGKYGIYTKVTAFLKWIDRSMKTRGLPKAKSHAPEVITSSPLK
- Sequence (P00742 41-179 partner): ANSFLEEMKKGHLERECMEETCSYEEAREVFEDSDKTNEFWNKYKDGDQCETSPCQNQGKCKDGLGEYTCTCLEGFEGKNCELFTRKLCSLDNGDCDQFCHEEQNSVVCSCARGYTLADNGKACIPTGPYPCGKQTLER
- procedure-summary: Direct inhibition of FXa, chromogenic substrate hydrolysis assay
- Format: biochemical
- setup-conditions: Tris-HCl buffer
readout-label: IC50

Record `Cc1ccc(C(=O)Nc2ccc(CP(=O)(O)O)cc2CP(=O)(O)O)cc1NC(=O)c1cccc(NC(=O)Nc2cccc(C(=O)Nc3cc(C(=O)Nc4ccc(CP(=O)(O)O)cc4CP(=O)(O)O)ccc3C)c2)c1` . Reported IC50: > 100 µM

Values compiled from patent US20250100963A1.
